Listing of entries alongside the reported IC50.
biological target: Recombinant human KDR (VEGFR-2) (Homo sapiens); test: Transcreener kinase assay of VEGFR-2 (KDR); conditions: Poly E4Y substrate
Sequence (P35968 789-1356 limits assumed): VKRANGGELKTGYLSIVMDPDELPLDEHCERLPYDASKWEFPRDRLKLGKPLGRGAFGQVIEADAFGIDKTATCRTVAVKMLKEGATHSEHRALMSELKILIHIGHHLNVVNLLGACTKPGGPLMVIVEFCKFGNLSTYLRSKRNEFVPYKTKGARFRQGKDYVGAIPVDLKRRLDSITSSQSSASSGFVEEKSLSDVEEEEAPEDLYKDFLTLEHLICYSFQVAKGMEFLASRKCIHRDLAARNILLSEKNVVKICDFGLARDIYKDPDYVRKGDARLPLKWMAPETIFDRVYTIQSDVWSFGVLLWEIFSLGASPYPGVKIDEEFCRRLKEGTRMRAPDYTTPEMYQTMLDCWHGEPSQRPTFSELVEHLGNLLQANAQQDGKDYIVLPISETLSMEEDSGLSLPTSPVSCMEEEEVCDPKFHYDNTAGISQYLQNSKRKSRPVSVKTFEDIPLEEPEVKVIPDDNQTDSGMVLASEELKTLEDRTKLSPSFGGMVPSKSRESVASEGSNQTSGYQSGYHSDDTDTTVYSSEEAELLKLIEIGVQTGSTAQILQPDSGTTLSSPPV
Enter your answer as a number in nM; do not include the unit.

>  <compound>
CC(=O)N1CCC(c2ccc(-c3cc4nccnc4c(OC[C@@H]4CN(S(C)(=O)=O)CCO4)n3)cc2)CC1 [Compound 33]

>  <IC50 (nM)>
1330

$$$$
>  <compound>
CS(=O)(=O)N1CCC(c2ccc(-c3cc4nccnc4c(OC[C@@H]4CN(S(C)(=O)=O)CCO4)n3)cc2)CC1 [Compound 57]

>  <IC50 (nM)>
1560

$$$$
>  <compound>
CN(C)c1ccc(-c2cc3nccnc3c(OC[C@@H]3CN(S(C)(=O)=O)CCO3)n2)cc1F [Compound 53]

>  <IC50 (nM)>
2960

$$$$

Attention now shifts to the item below.
Entry CS(=O)(=O)N1CCN(c2ccc(-c3cc4nccnc4c(OC[C@@H]4CN(S(C)(=O)=O)CCO4)n3)cc2)CC1 [Compound 26] has what IC50? 1600

====

Record: IC50 reported on Syk kinase (Homo sapiens, UniProt P43405).

>  <given.smiles>
O=C(C(F)F)N1CCO[C@H](COc2nc(-c3ccc(C4CCOCC4)cc3)cc3nccnc23)C1

>  <target.entity>
Syk kinase (Homo sapiens, UniProt P43405)

>  <IC50>
1 to 100 nM

$$$$

Entry CN(C)c1ccc(-c2cc3nccnc3c(OC[C@@H]3CN(C(=O)CC4CC4)CCO3)n2)cc1 has what IC50? 1 to 100 nM
